The binders listed here are annotated with their Efficacy (%), RGA.
Target: T1, murine IL-11 (mouse, UniProt P47873 22-199)
T1 sequence: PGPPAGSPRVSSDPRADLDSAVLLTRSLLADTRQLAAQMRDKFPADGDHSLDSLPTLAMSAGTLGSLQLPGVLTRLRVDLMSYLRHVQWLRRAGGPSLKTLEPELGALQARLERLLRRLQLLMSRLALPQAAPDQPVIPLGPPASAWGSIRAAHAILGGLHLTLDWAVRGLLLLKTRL
Test: cell-based or functional assay
A number alone suffices; assume %.

TPP-27156 (antibody, V domains shown) VH: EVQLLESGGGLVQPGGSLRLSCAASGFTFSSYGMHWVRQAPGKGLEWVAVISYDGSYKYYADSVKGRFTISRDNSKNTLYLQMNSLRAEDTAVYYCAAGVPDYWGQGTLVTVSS VL: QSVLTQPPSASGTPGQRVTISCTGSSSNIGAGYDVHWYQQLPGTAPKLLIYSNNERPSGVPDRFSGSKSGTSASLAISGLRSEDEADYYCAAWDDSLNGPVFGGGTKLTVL :: 90.6

Next up:
Q: Which Efficacy (%), RGA reading was recorded for the binder TPP-21158 (antibody, V domains shown) VH: EVQLLESGGGLVQPGGSLRLSCAASGFTFSSYGMHWVRQAPGKGLEWVAVISYDGSYKYYADSVKGRFTISRDNSKNTLYLQMNSLRAEDTAVYYCARGVPDYWGQGTLVTVSS VL: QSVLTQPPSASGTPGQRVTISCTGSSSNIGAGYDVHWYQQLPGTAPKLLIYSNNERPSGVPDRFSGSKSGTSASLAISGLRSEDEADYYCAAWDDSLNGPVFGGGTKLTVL ?
Result: 73.2
